- measuredTarget: UniProt:Q9BWP8
- assayProcedure: Proteolysis of CL-K1 by trypsin at increasing Ca2+ concentrations
- cond: trypsin 0.5% (w/w), read-out: apparent KD for calcium
- Sequence (Q9BWP8 116-271): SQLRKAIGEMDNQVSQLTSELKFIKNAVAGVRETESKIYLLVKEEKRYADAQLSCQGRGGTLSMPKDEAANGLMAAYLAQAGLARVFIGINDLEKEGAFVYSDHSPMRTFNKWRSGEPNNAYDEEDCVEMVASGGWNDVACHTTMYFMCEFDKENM
measuredAttribute: Kd

Kd for [Ca+2] [Ca^2+] is ~1 mM

* * *

- measuredTarget: CL-K1 (Homo sapiens)
- assayProcedure: Glycan-array screen with fluorophore-labelled CL-K1
- Format: binding
- Design: For full-length protein, the cDNA was cloned into the polylinker region of expression vector pED; made in house; host or cells: Chinese hamster ovary cells
- cond: glycan array, CL-K1 200 μg/ml, with Ca2+; ± SE from six replicates
- Sequence (Q9BWP8 26-271): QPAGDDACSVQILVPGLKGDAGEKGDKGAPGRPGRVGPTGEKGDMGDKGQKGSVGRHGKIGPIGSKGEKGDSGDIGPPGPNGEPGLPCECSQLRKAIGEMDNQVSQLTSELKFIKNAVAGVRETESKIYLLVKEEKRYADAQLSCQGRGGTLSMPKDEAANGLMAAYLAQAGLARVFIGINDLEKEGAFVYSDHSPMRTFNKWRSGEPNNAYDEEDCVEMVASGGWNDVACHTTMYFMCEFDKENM
Exercise: for every item that follows, state its recorded relative fluorescence, With Ca^2+.
A bare number is all that is needed in reply.

CC1OC(O)C(O)C(O)C1O (centres unmarked) [compound 10] yielded relative fluorescence, With Ca^2+ of 431

The compound OC[C@H]1O[C@H](O)[C@H](O)[C@@H](O)[C@H]1O showed relative fluorescence, With Ca^2+ equal to 294

Lookup result for CC(=O)N[C@@H]1[C@@H](O)[C@H](O)[C@@H](CO)O[C@H]1O [compound 20] ; measured relative fluorescence, With Ca^2+: 170

Input OC[C@H]1O[C@H](O)[C@H](O)[C@@H](O)[C@@H]1O . Output relative fluorescence, With Ca^2+: 250

# relative fluorescence, With Ca^2+ of OC[C@H]1O[C@@H](O)[C@@H](O)[C@@H](O)[C@@H]1O = 99

Input OCC1OC(OCC2OC(OCC3OC(O)C(O)C(OC4OC(CO)C(O)C(O)C4O)C3O)C(O)C(OC3OC(CO)C(O)C(O)C3O)C2O)C(O)C(O)C1O (centres unmarked) . Output relative fluorescence, With Ca^2+: 1000

Please fill in: relative fluorescence, With Ca^2+ reported for OC[C@H]1O[C@H](O)[C@@H](O)[C@@H](O)[C@@H]1O = 566

relative fluorescence, With Ca^2+ reported for this compound OC[C@H]1O[C@@H](O)[C@H](O)[C@@H](O)[C@H]1O : 941

Reported relative fluorescence, With Ca^2+ of CC(=O)N[C@@H]1[C@@H](O)[C@H](O)[C@@H](CO)O[C@H]1O [compound 21] : 499

Query CC1OC(O)C(O)C(O)C1O (centres unmarked) [compound 11] yields relative fluorescence, With Ca^2+ of 546

// relative fluorescence, With Ca^2+ value for OC[C@H]1O[C@@H](O)[C@H](O)[C@@H](O)[C@@H]1O : 831
